# Lookup of reported pIC50 keyed by entry
biological target: PI3Kβ (Homo sapiens); construct: His6 (N); assay: Isozyme selectivity test: kinase assay of PI3Kβ (p110β assay); details: recombinant truncated p110β, 7.5 ng protein/well
Sequence (P42338 109-1070): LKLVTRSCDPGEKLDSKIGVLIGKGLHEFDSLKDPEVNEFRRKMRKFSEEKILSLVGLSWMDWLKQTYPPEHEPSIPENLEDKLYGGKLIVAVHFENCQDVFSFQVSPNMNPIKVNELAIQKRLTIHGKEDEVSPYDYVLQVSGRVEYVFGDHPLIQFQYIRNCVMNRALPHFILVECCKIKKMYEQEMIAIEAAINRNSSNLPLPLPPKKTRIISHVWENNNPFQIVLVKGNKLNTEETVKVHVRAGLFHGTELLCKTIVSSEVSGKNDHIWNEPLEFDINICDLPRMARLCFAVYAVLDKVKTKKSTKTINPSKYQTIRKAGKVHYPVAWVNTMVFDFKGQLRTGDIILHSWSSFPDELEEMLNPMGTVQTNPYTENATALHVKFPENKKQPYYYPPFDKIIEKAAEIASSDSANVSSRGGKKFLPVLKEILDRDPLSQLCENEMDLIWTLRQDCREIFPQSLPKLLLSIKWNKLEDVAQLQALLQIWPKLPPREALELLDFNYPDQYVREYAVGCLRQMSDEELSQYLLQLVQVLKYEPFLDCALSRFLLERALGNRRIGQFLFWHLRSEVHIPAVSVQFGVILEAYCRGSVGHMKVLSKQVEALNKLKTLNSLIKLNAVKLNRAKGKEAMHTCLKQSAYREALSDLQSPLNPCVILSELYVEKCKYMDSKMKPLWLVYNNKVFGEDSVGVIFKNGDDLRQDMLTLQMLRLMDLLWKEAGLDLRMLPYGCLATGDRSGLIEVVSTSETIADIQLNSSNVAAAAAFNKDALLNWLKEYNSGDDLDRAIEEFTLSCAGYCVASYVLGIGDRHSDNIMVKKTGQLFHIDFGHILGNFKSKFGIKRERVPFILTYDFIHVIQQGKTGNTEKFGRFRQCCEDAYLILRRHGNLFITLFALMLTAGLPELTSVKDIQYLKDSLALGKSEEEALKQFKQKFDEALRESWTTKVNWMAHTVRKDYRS
pIC50: −log10 of the molar value.

COc1c(OCCCN2CCOCC2)ccc2c1N=C(NC(=O)c1ccc(N3CCOCC3)nc1)N1CCN=C21 [Example 57] | 7.00 to 8.00

Qu. Field request: pIC50 | item: COc1c(OCCCN2C[C@@H](C)O[C@@H](C)C2)ccc2c1N=C(NC(=O)c1cncnc1)N1CCN=C21 [Example 27]
Ans. > 8.00

Qu. Field request: pIC50 | item: COc1c(OCCCN2CCOCC2)ccc2c1N=C(NC(=O)c1cnc(N3CCCC3)nc1)N1CCN=C21 [Example 47]
Ans. 7.00 to 8.00

Qu. Field request: pIC50 | item: COc1c(OCCCN2CCOCC2)ccc2c1N=C(NC(=O)c1ccc(CCN3CCCC3)nc1)N1CCN=C21 [Example 14]
Ans. 7.00 to 8.00

Qu. Field request: pIC50 | item: COc1c(OCCCN2CCOCC2)ccc2c1N=C(NC(=O)c1cccs1)N1CCN=C21 [Example 93]
Ans. 7.00 to 8.00

Qu. Field request: pIC50 | item: COc1c(OCCCN2CCOCC2)ccc2c1N=C(NC(=O)c1ccc(C(F)(F)F)nc1)N1CCN=C21 [Example 62]
Ans. 7.00 to 8.00

Qu. Field request: pIC50 | item: COc1c(OCCCN2CCOCC2)ccc2c1N=C(NC(=O)c1cnc(NCCCN3CCOCC3)nc1)N1CCN=C21 [Example 43]
Ans. 7.00 to 8.00

Qu. Field request: pIC50 | item: COc1c(OCCCN2C[C@@H](C)O[C@@H](C)C2)ccc2c1N=C(NC(=O)c1ccc(N)nc1)N1CCN=C21 [Example 39]
Ans. > 8.00
